Source listed as PubChem BioAssay AID1159580.

- procedure_details: chemical genetic growth profiling, strain panel (AID 1159580);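 further: tested at 20 µM; growth read once vehicle control cultures reached saturation at 30 °C; lower values mean less growth of the strain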
- condition_label: S. cerevisiae deletion strains, growth OD, locus YML120C, strain ndi1
Screen size: about 5,500 compounds; about 2,000 (36%) were called active. Roughly 18% stayed inconclusive and do not appear here. No stated cut-off is given here; in the data, active means normalized growth mostly below about 0.91 (no sharp cut-off); inconclusive means no clear call, values can overlap the other calls; inactive means mostly above about 0.92. Some of the results follow.
API: response.call in active, inactive

compound	label_value
Cc1c(N(C)CS(=O)(=O)O)c(=O)n(-c2ccccc2)n1C	inactive

## Input Give the logged outcome of this assay for the following compound: CCC(=O)O[C@H]1CCC2C3CCc4cc(O)ccc4C3CC[C@@]21C (some centres not stated)
## Output active

====

- procedure_details: chemical genetic growth profiling, strain panel (AID 1159580);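 further: tested at 20 µM; growth read once vehicle control cultures reached saturation at 30 °C; lower values mean less growth of the strain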
- condition_label: S. cerevisiae deletion strains, growth OD, locus YJR075W, strain HOC1, hits give low values
Among all 5,500 compounds or so, about 2,000 (36%) were called active. Another 18% or so got no clear call; they are omitted. Some of the results follow.
Threshold 1: normalized growth strictly smaller gives yes, otherwise no.

Solved cases (2 shown):
entry_smiles	label_value
Fc1ccc(C(c2ccc(F)cc2)N2CCN(C/C=C/c3ccccc3)CC2)cc1	yes
N#CC(C#N)=CNc1cc(C(F)(F)F)ccc1N1CCCCC1	yes

Read the next record carefully.
## Input Quick check: normalized growth of CC(=O)CC(C)=Nc1ccc(C(F)(F)F)cc1 under 1?
## Output no
